# TARGET: Casp6-K284A (Homo sapiens, UniProt P55212, K284A)
# Construct: it only partially self-cleaved at the TEVD193 site generating ΔCasp6, LS-L and SS fragments; His (C)
# Sequence (P55212 24-193): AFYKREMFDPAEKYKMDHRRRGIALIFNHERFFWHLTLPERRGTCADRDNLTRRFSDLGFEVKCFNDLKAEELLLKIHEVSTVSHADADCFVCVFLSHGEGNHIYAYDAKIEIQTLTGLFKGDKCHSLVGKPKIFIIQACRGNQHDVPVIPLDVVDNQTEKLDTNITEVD
# Sequence (P55212 194-293 K284A): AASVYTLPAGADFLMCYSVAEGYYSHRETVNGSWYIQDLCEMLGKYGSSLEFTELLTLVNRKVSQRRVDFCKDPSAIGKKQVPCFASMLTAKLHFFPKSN
# PROTOCOL_NOTES: C13 dose-response, fluorescence-based activity assay on Casp6-K284A
# COND: Casp6-K284A; read-out: IC50 of C13 for Casp6-K284A (Fig. 4f)
MEASURE: IC50
# include the unit after the value

Prompt: Dear colleague, I am looking for the recorded IC50 of the following compound: COC(=O)c1cc(CNC(=O)C2Cc3ccccc3O2)cc(NC(=O)c2ccco2)c1 (stereo not shown)
Response: 46.7 µM
